# experiment summary: Assessment of Plasma Exposure in DBA/2J mice
# Type: in vivo, mouse
# condition set: male, DBA/2J, mouse, plasma, po, 100 mg/kg, Group 4: 100 mg/kg PO, Vehicle 2; mouse plasma
quantity: AUC(0-t) (ng·h/mL)
Give bare numbers, in ng·h/mL.

Task item: For the compound COCCNc1nc(-c2nccn2C)nc2sc(-c3cccc(OC)c3Cl)c(-c3ccccc3)c12 , what AUC(0-t) is on record?
Reply: 17100

---

# experiment summary: Assessment of Plasma Exposure in DBA/2J mice
# Assay type: in vivo, mouse
# condition set: male, DBA/2J, mouse, plasma, po, 100 mg/kg, Group 3: 100 mg/kg PO, Vehicle 1; mouse plasma; read-out: AUCINFobs
quantity: AUC(0-inf)
Please state the number and follow it with the unit.

Task item: For the molecule COCCNc1nc(-c2nccn2C)nc2sc(-c3cccc(OC)c3Cl)c(-c3ccccc3)c12 , what AUC(0-inf) is on record?
Reply: 16700 ng·h/mL

---

# target of assay: KRas G12D mutant (Homo sapiens (Human), UniProt P01116, G12D)
# Sequence (P01116 other isoform, or with tags, fused parts or gaps G12D): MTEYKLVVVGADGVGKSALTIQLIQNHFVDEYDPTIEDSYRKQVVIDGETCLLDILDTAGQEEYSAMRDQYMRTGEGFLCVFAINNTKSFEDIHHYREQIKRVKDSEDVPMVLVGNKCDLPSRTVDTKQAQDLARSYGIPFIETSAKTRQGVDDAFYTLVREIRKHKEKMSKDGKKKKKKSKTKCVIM
# experiment summary: Ras GTP Binding Domain Inhibition Assay, KRas G12D mutant
# condition set: 20 μM; + SOS; Table 7; read-out: KRas G12D mutant + SOS: % inh.
Give inhibition at 20 µM for every item shown.

Known results for compounds:
[[record]]
compound = "COC1CCN(c2nc(-c3nccn3C)nc3sc(-c4ccn(C)n4)c(-c4ccccc4)c23)CC1"
value_reported = "26 to 45%"

[[record]]
compound = "COCC1CN(c2nc(-c3nccn3C)nc3sc(-c4ccn(C(C)C)n4)c(C)c23)CCO1 (racemic)"
value_reported = "76 to 100%"

[[record]]
compound = "COCCCCOc1nc(-c2nccn2C)nc2sc(-c3ccn(C(C)C)n3)c(C)c12"
value_reported = "0%"


Dear colleague, could you send me inhibition at 20 µM for each of the items below? Thanks.
1. Cc1c(-c2ccn(C(C)C)n2)sc2nc(-c3nccn3C)nc(NCC3CCCO3)c12 (racemic)
2. COCCn1ccc(-c2sc3nc(-c4nccn4C)nc(NC[C@H]4CC[C@H]4COC)c3c2C)n1 (racemic)
3. COCCOCCNc1nc(-c2nccn2C)nc2sc(-c3ccn(C(C)C)n3)c(C)c12
4. COCCn1ccc(-c2sc3nc(-c4nccn4C)nc(N[C@@H]4CC[C@H](OC)C4)c3c2C)n1 (racemic)

Reply:
["46 to 75%", "76 to 100%", "76 to 100%", "76 to 100%"]

---

# target of assay: Rho-A (Homo sapiens (Human), UniProt P61586)
# Sequence (P61586 whole entry, species assumed, the tested form may be a part): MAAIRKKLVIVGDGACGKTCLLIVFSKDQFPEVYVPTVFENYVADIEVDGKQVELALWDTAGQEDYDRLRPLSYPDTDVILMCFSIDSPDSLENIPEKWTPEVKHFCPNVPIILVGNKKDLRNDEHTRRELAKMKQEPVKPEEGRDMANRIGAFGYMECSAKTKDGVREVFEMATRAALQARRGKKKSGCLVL
# experiment summary: Ras GTP Binding Domain Inhibition Assay, Rho-A
# condition set: + SOS, read-out: Rho-A + SOS: % inh.
quantity: inhibition at 20 µM

[[record]]
compound = "COCCNc1nc(-c2nccn2C)nc2sc(-c3cccc(OC)c3Cl)c(-c3ccc(OC)cc3)c12"
target_of_assay = "Rho-A (Homo sapiens (Human), UniProt P61586)"
quantity = "inhibition at 20 µM"
value_reported = "46 to 75%"

[[record]]
compound = "CO[C@H]1CC[C@@H](Nc2nc(-c3nccn3C)nc3sc(-c4ccn(C(C)C)n4)c(C)c23)C1 (racemic)"
target_of_assay = "Rho-A (Homo sapiens (Human), UniProt P61586)"
quantity = "inhibition at 20 µM"
value_reported = "76 to 100%"

[[record]]
compound = "CO[C@H]1CC[C@@H](Nc2nc(-c3nccn3C)nc3sc(-c4ccn(C)n4)c(-c4ccccc4)c23)C1 (racemic)"
target_of_assay = "Rho-A (Homo sapiens (Human), UniProt P61586)"
quantity = "inhibition at 20 µM"
value_reported = "76 to 100%"

[[record]]
compound = "COc1cccc(-c2sc3nc(-c4nccn4C)nc(NC4CCC(OC)C4)c3c2C)c1F (racemic)"
target_of_assay = "Rho-A (Homo sapiens (Human), UniProt P61586)"
quantity = "inhibition at 20 µM"
value_reported = "76 to 100%"

[[record]]
compound = "CO[C@@H]1CC[C@H](Nc2nc(-c3nccn3C)nc3sc(-c4ccn(C(C)C)n4)c(-c4ccccc4)c23)C1 (single isomer, unassigned)"
target_of_assay = "Rho-A (Homo sapiens (Human), UniProt P61586)"
quantity = "inhibition at 20 µM"
value_reported = "26 to 45%"

[[record]]
compound = "COCCNc1nc(-c2cn(C)cn2)nc2sc(-c3cccc(OC)c3Cl)c(-c3ccc(OC)cc3)c12"
target_of_assay = "Rho-A (Homo sapiens (Human), UniProt P61586)"
quantity = "inhibition at 20 µM"
value_reported = "46 to 75%"

[[record]]
compound = "COCCn1ccnc1-c1nc(N[C@H]2C[C@@H](OC)C2)c2c(-c3ccccc3)c(-c3ccn(C)n3)sc2n1"
target_of_assay = "Rho-A (Homo sapiens (Human), UniProt P61586)"
quantity = "inhibition at 20 µM"
value_reported = "76 to 100%"

[[record]]
compound = "COCCNc1nc(-c2nccn2C)nc2sc(-c3cccc(OC)c3Cl)c(-c3ccccc3)c12"
target_of_assay = "Rho-A (Homo sapiens (Human), UniProt P61586)"
quantity = "inhibition at 20 µM"
value_reported = "26 to 45%"


Task item: Request: inhibition at 20 µM, test system Rho-A (Homo sapiens (Human), UniProt P61586), entry COC1CCN(c2nc(-c3nccn3C)nc3sc(-c4ccn(C)n4)c(-c4ccccc4)c23)CC1
Reply: 0%
